System Under Test: Alpha-2B adrenergic receptor (Homo sapiens, UniProt P18089)
Sequence (P18089 whole entry): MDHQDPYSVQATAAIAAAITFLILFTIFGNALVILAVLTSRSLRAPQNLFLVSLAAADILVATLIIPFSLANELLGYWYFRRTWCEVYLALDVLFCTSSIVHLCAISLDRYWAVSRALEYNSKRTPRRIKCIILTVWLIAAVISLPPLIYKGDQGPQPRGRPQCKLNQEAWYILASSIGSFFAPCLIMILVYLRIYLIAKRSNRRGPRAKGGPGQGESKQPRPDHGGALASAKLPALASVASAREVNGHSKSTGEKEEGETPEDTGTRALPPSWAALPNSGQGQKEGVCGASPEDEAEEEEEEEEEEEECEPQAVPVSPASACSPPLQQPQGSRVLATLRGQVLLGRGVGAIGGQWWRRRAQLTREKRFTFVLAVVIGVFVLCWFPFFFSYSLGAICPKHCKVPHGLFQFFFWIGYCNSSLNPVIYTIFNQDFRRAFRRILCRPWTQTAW
pKi: −log10 of the molar value.
Label scheme for pKi: lower than 6 is criterion not met, 6 and above is criterion met.

query: Kindly determine if pKi recorded for CCCc1ccccc1OCC1=NCCN1 is above or exactly 6.
result: criterion met

query: Check the entry CCCc1ccccc1OC(C)C1=NCCN1 (configuration not stated) : does pKi equal or exceed 6?
result: criterion met

query: Is pKi at least 6? Consider c1ccc(OCC2=NCCN2)c(CC2CC2)c1
result: criterion met

query: Identify whether the reported pKi of the following molecule is 6 or greater: c1ccc2oc(C3=NCCN3)cc2c1
result: criterion not met

query: In plain terms: is recorded pKi at least 6 for Brc1ccccc1OCC1=NCCN1 ?
result: criterion met

###

System Under Test: Alpha-2A adrenergic receptor (Homo sapiens) (UniProt P08913)
Sequence (P08913 whole entry): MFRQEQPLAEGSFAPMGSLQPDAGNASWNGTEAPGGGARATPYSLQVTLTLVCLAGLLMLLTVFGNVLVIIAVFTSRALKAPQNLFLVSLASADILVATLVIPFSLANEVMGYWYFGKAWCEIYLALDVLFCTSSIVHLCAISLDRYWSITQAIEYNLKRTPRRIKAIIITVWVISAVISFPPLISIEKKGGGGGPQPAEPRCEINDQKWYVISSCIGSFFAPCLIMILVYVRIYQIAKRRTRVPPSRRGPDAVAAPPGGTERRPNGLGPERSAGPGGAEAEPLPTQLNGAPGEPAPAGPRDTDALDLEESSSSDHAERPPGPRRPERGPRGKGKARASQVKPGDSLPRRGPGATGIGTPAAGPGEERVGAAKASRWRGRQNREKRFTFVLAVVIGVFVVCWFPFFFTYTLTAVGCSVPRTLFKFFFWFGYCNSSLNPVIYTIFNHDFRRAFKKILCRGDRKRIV
Method Description: Antagonist activity at human alpha2A AR
Property Measured: pKb
Give only the figure.

query: Any idea what its pKb is? The compound is C=CCc1ccccc1OC(C)C1=NCCN1 (stereo not given)
result: 7.4

query: For the compound shown here, CC(Oc1ccccc1OC1CC1)C1=NCCN1 (stereo not given) , give the reported pKb.
result: 6.9

query: # pKb lookup, item CCCc1ccccc1OCC1=NCCN1
result: 6.28

query: Please report the recorded pKb for CC(Oc1ccccc1Br)C1=NCCN1 (stereo not given) .
result: 7.04

query: Given c1ccc(OC2CC2)c(OCC2=NCCN2)c1 , state its recorded pKb.
result: 6.22

query: Entry c1ccc(C2CC2)c(OCC2=NCCN2)c1 has what pKb?
result: 6.4

query: Requested field: pKb. Item: C=CCc1ccccc1O[C@H](C)C1=NCCN1
result: 7.4

query: Please report the recorded pKb for CCCc1ccccc1OC(C)C1=NCCN1 (stereo not given) .
result: 7.05

query: Form field: reported pKb of C[C@@H](Oc1ccccc1C1CC1)C1=NCCN1
result: 6.9

query: Dear colleague, I am looking for the recorded pKb of the following compound: C=CCc1ccccc1O[C@@H](C)C1=NCCN1
result: 7.8

query: Item under review: Brc1ccccc1OCC1=NCCN1 . Reported pKb?
result: 6.72

query: Tell me the measured pKb of C[C@H](Oc1ccccc1C1CC1)C1=NCCN1 , please.
result: 7.7

query: So what's the measured pKb for this one? CC(Oc1ccccc1C1CC1)C1=NCCN1 (stereo not given)
result: 7

query: # get_value(readout='pKb', item= C=CCc1ccccc1OCC1=NCCN1 )
result: 6.5

query: Please look up its pKb: c1ccc(OCC2=NCCN2)c(CC2CC2)c1
result: 6.35

###

What pKi was measured for each of the following?
System Under Test: UniProt P08908
Method Description: Binding affinity at human 5HT1A receptor
A value of pKi is the negative decimal logarithm of a concentration given in moles per litre.

query: Endpoint output: pKi of CC(Oc1ccccc1OC1CC1)C1=NCCN1 (stereo unspecified) . Value?
result: 7.83

query: Please give the measured pKi for this compound: CCCc1ccccc1OC(C)C1=NCCN1 (stereo unspecified)
result: 7.86

query: Please report the recorded pKi for C=CCc1ccccc1OCC1=NCCN1 .
result: 7.15

query: // lookup pKi for c1ccc(C2CC2)c(OCC2=NCCN2)c1
result: 7.46

query: Please look up its pKi: c1ccc(OC2CC2)c(OCC2=NCCN2)c1
result: 7.10

query: Reported pKi for CC(Oc1ccccc1C1CC1)C1=NCCN1 (stereo unspecified) : what is it?
result: 8.14

query: Given the entry CCCc1ccccc1OCC1=NCCN1 , report its measured pKi.
result: 7.10

query: If you can, please state the reported pKi value of C[C@H](Oc1ccccc1C1CC1)C1=NCCN1 .
result: 8.22

query: Can you share its pKi? I mean this compound: Brc1ccccc1OCC1=NCCN1
result: 6.25

query: May I ask what pKi has been recorded for c1ccc(OCC2=NCCN2)c(CC2CC2)c1 ?
result: 7.08

query: // lookup pKi for CC(Oc1ccccc1Br)C1=NCCN1 (stereo unspecified)
result: 6.83

###

System Under Test: Alpha-2C adrenergic receptor (Homo sapiens) (UniProt P18825)
Sequence (whole entry): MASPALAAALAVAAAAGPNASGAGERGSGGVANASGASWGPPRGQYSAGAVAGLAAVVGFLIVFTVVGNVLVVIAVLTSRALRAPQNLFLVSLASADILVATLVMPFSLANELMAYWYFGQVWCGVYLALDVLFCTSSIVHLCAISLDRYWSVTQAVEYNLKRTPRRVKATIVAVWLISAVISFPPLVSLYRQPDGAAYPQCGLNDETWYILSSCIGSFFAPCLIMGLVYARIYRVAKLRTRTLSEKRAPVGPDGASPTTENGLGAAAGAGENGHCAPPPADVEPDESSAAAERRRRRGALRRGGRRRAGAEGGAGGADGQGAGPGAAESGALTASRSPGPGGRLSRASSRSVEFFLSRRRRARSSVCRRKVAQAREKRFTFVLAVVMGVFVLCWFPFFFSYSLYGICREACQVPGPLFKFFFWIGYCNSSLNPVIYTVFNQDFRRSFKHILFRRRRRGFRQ
Method Description: Agonist activity at human alpha2C AR assessed as intrinsic activity
The threshold is inclusive: Intrinsic activity of exactly 0.8 counts as Criterion met; values below receive Criterion not met.

query: Check if Intrinsic activity >= 0.8 (inclusive). Item: C[C@@H](Oc1ccccc1CC1CC1)C1=NCCN1
result: Criterion not met

query: Say whether C=CCc1ccccc1O[C@@H](C)C1=NCCN1 shows Intrinsic activity of 0.8 or more.
result: Criterion met

query: Quick check, Intrinsic activity >= 0.8? CC(Oc1ccccc1C1CC1)C1=NCCN1 (configuration not stated)
result: Criterion met

query: Quick check, Intrinsic activity >= 0.8? C=CCc1ccccc1O[C@H](C)C1=NCCN1
result: Criterion not met

query: Record CC(Oc1ccccc1OC1CC1)C1=NCCN1 (configuration not stated) ; criterion: Intrinsic activity no lower than 0.8. Met?
result: Criterion not met

query: Textbook exercise: given the entry CCCc1ccccc1OC(C)C1=NCCN1 (configuration not stated) , state whether its Intrinsic activity is greater than or equal to 0.8.
result: Criterion not met

query: Hello, I need to know if CC(Oc1ccccc1Br)C1=NCCN1 (configuration not stated) has measured Intrinsic activity not below 0.8. Thanks!
result: Criterion met

query: Kindly determine if Intrinsic activity recorded for C[C@H](Oc1ccccc1C1CC1)C1=NCCN1 is above or exactly 0.8.
result: Criterion met

query: Entry C[C@@H](Oc1ccccc1C1CC1)C1=NCCN1 : is its Intrinsic activity no less than 0.8?
result: Criterion not met

query: Is the recorded value of Intrinsic activity equal to or greater than 0.8 for this compound? C=CCc1ccccc1OC(C)C1=NCCN1 (configuration not stated) [ALLYPHENYLINE]
result: Criterion met

query: Decide: Intrinsic activity of C[C@H](Oc1ccccc1CC1CC1)C1=NCCN1 >= 0.8?
result: Criterion met

###

System Under Test: Alpha-2C adrenergic receptor (Homo sapiens, UniProt P18825)
pKi: −log10 of the molar value.
Label label 1 when pKi is at or above 6; anything below gets label 0.

query: Tell me whether pKi is at least 6 here: Brc1ccccc1OCC1=NCCN1
result: label 1

query: Does CCCc1ccccc1OCC1=NCCN1 have a reported pKi of at least 6?
result: label 1

query: Could you verify whether the entry CCCc1ccccc1OC(C)C1=NCCN1 (configuration not stated) shows pKi of no less than 6?
result: label 1

query: Does c1ccc(OCC2=NCCN2)c(CC2CC2)c1 have a reported pKi of at least 6?
result: label 1

query: Check this molecule for pKi at or above 6: C=CCc1ccccc1OCC1=NCCN1
result: label 1

query: pKi >= 6 for c1ccc2oc(C3=NCCN3)cc2c1 ?
result: label 0

###

System Under Test: 5-hydroxytryptamine receptor 1A (Homo sapiens) (UniProt P08908)
Sequence (P08908 whole entry): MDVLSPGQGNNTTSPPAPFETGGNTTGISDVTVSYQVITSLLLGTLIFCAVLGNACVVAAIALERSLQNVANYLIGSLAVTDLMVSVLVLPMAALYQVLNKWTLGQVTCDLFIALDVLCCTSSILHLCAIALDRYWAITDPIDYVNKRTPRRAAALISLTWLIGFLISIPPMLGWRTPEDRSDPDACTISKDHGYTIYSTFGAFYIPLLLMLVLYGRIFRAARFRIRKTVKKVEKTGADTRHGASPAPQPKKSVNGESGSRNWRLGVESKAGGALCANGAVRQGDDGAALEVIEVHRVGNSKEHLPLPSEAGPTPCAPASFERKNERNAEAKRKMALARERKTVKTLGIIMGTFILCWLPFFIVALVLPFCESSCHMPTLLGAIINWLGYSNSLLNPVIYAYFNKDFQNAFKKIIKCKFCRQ
Method Description: Agonist activity at human 5HT1A receptor
Property Measured: pD2
Just the number, please.

query: What does the data say about its pD2? Entry: C=CCc1ccccc1O[C@@H](C)C1=NCCN1
result: 7.19

query: Reported pD2, compound C[C@H](Oc1ccccc1C1CC1)C1=NCCN1 : ____
result: 7.86

query: Can you share its pD2? I mean this compound: C=CCc1ccccc1OC(C)C1=NCCN1 (configuration not stated) [ALLYPHENYLINE]
result: 6.86

query: Look at this compound and give its reported pD2. CCCc1ccccc1OC(C)C1=NCCN1 (configuration not stated)
result: 7.08

query: Look at this compound and give its reported pD2. CC(Oc1ccccc1C1CC1)C1=NCCN1 (configuration not stated)
result: 7.24

###

Please provide measured EC50 for the entries that follow.
System Under Test: Alpha-2B adrenergic receptor (Homo sapiens)
Method Description: Agonist activity at human alpha2B AR
Expressed in µM, but write only the number.

query: Given Brc1ccccc1OCC1=NCCN1 , state its recorded EC50.
result: 1.26

query: # input molecule: c1ccc(OCC2=NCCN2)c(CC2CC2)c1 ; wanted: its EC50
result: 1.7

query: What value of EC50 has been reported for the following molecule? CCCc1ccccc1OCC1=NCCN1
result: 2.51

query: EC50 lookup needed for C=CCc1ccccc1OCC1=NCCN1 , thanks.
result: 0.977

query: Which EC50 is listed for c1ccc(OC2CC2)c(OCC2=NCCN2)c1 ?
result: 3.16

query: Give the measured EC50 of CCCc1ccccc1OC(C)C1=NCCN1 (stereo unspecified) .
result: 5.01
